experiment: Oral bioavailability in Sprague-Dawley rat at 5 mg/kg; assay type: ADME, organism-based; conditions: in vivo
parameter: bioavailability (%)

OC[C@H]1O[C@@H](c2cc(Cc3ccc(C4CC4)cc3)c(Cl)c3c2CCO3)[C@H](O)[C@@H](O)[C@@H]1O	77.4
CCOc1ccc(Cc2cc([C@@H]3O[C@H](CO)[C@@H](O)[C@H](O)[C@H]3O)ccc2Cl)cc1	88.4

----------
assay: Metabolic stability in mouse by LC-MS/MS analysis; assay type: ADME; details: read-out: Stability
parameter: half-life (min)

(I) CCOc1ccc(Cc2cc([C@@H]3O[C@H](CO)[C@@H](O)[C@H](O)[C@H]3O)c3c(c2Cl)OCC3)cc1
(II) COc1ccc(Cc2cc([C@@H]3O[C@H](CO)[C@@H](O)[C@H](O)[C@H]3O)c3c(c2C)CCC3)cc1
Determine, for I and II , which has the greater value of half-life. Please reply using the label of the selected record.
I
(I: 111 min, II: 20.3 min)

(a) COc1ccc(Cc2cc([C@@H]3O[C@H](CO)[C@@H](O)[C@H](O)[C@H]3O)c3c(c2Cl)CCC3)cc1
(b) C=Cc1ccc(Cc2cc([C@@H]3O[C@H](CO)[C@@H](O)[C@H](O)[C@H]3O)c3c(c2Cl)OCC3)cc1
Just curious, which one has the larger half-life reading, a or b ? Give the label under which the chosen entry appears.
b

(1) CCc1ccc(Cc2cc([C@@H]3O[C@H](CO)[C@@H](O)[C@H](O)[C@H]3O)c3c(c2Cl)OCC3)cc1
(2) OC[C@H]1O[C@@H](c2cc(Cc3ccc(C4CC4)cc3)c(Cl)c3c2CCO3)[C@H](O)[C@@H](O)[C@@H]1O [ENAVOGLIFLOZIN]
Form field 'greater half-life' accepts 1 or 2 ; which applies? Write down the label of the entry you select.
2
(2: 103 min, 1: 44.5 min)

----------
assay: Terminal elimination half life in Sprague-Dawley rat at 5 mg/kg, po; type: ADME, organism-based; settings: in vivo, read-out: beta t1/2 (converted)
parameter: half-life (h)
A number alone suffices; assume h.

Reported half-life of `OC[C@H]1O[C@@H](c2cc(Cc3ccc(C4CC4)cc3)c(Cl)c3c2CCO3)[C@H](O)[C@@H](O)[C@@H]1O` : 4.9

----------
target: Sodium/glucose cotransporter 2 (Homo sapiens, UniProt P31639); assay: Inhibition of human SGLT2 expressed in CHO cells by methyl-alpha-D-glucopyranoside assay
Sequence (P31639 whole entry): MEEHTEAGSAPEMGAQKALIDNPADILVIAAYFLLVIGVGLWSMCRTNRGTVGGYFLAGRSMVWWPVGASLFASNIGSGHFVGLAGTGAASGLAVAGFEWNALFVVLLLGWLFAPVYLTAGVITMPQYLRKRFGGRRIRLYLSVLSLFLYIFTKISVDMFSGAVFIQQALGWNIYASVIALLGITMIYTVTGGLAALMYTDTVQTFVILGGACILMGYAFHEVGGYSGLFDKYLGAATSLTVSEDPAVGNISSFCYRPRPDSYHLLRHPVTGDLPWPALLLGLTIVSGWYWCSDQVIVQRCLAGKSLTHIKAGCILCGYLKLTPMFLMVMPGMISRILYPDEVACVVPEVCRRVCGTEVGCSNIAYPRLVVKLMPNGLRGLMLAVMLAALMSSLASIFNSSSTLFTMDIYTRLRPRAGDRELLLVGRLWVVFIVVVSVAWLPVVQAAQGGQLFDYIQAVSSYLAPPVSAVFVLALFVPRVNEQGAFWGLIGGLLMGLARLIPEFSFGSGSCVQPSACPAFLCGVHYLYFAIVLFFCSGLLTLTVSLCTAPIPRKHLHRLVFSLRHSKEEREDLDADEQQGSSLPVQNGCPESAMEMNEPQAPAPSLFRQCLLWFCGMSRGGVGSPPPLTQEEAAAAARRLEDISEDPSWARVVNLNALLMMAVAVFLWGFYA
parameter: IC50 (nM)

(a) COc1ccc(Cc2cc3c(c([C@@H]4O[C@H](CO)[C@@H](O)[C@H](O)[C@H]4O)c2)CCC3)cc1
(b) Cc1ccc(Cc2cc([C@@H]3O[C@H](CO)[C@@H](O)[C@H](O)[C@H]3O)c3c(c2Cl)OCC3)cc1
Between the entries labelled a and b , which has a larger IC50 value on record? State the label of the item chosen.
a

----------
test: Terminal elimination half life in Sprague-Dawley rat at 1 mg/kg, iv; format: ADME, organism-based; conditions: in vivo, read-out: beta t1/2 (converted)
parameter: half-life (h)

(P) OC[C@H]1O[C@@H](c2cc(Cc3ccc(C4CC4)cc3)c(Cl)c3c2CCO3)[C@H](O)[C@@H](O)[C@@H]1O
(Q) CCOc1ccc(Cc2cc([C@@H]3O[C@H](CO)[C@@H](O)[C@H](O)[C@H]3O)ccc2Cl)cc1
Rank P against Q by their half-life values and give the higher one. API: response body contains the label of the selected item.
P
